Source listed as PubChem BioAssay (NCI).

# Tested on: IGROV1 ovarian
# protocolText: NCI-60 one-dose screen, 48 h (100 = growth as untreated, 0 = no growth, -100 = all killed)
# recordedConditions: 10 µM
About 83,000 compounds went through this panel and 20% of them were active in at least one assay; those are over-represented in the sample as a whole.
assayReadout: growth (%)
The reply should contain only the number, in %.

Nc1ccc(/C=N/Nc2ccnc3c(O)cccc23)c2cccnc12    60.2

Quote growth with test system IGROV1 ovarian for Cc1c(O)c(=O)ccn1C1CCC(CC2CCC(n3ccc(=O)c(O)c3C)CC2)CC1 (centres undefined) 32.5

State, for IGROV1 ovarian, measured growth of the compound listed here: COC(=O)C1(O)NC(=C(C#N)C#N)C(C#N)=C1C(=O)c1ccc(OC)c(OC)c1 (centres undefined) 101

Fill in: growth on IGROV1 ovarian, entry COc1ccc(C(=O)CSc2nc(-c3cc(OC)ccc3OC)cc(-c3ccc(OC)cc3)c2C#N)cc1 102

Enter recorded growth with IGROV1 ovarian for N=C1S/C(=C/c2ccc(-c3ccc4c(c3)C(=O)NC4=O)o2)C(=O)N1c1ccc(Br)cc1 here. 21.9

Write growth of CS(=O)(=O)c1nccc(-c2c(-c3cccc(OCc4ccc(F)cc4)c3)nc3sccn23)n1 ; system used: IGROV1 ovarian 49.7

Provide IGROV1 ovarian growth reading for COc1ccc(Nc2cnc3cc(NS(=O)(=O)c4ccc(C)cc4)ccc3n2)cc1 . 65.5

Report the value of growth obtained on IGROV1 ovarian for S=C(SSC(=S)N(c1ccccc1)c1ccccc1)N(c1ccccc1)c1ccccc1 . 111

Check IGROV1 ovarian data and give growth for CCOC(=O)C1C(C(=O)OCC)C2C(=O)C3C(C(=O)OCC)C(C(=O)OCC)C3C(=O)C12 (centres undefined) . 118

* * *

# System: OVCAR-5 ovarian
# protocolText: NCI-60 one-dose screen, 48 h
# recordedConditions: 10 µM
This is part of a sample that, as a whole, favours compounds with a hit. Of some 83,000 tested, about 20% had one in any assay. Calls of active or inactive are those of the source. The calls were made as follows: active = growth percent below 10; inactive = the rest.
Hello, when you answer, please use one of the following outcomes: t (active), f (inactive)

Per the assay record, what outcome was assigned to COc1ccc2c(c1)C(=O)/C(=C/c1ncc([N+](=O)[O-])n1C)O2 ? t

* * *

# Tested on: SNB-75 CNS
# protocolText: NCI-60 one-dose screen, 48 h (100 = growth as untreated, 0 = no growth, -100 = all killed)
# recordedConditions: 10 µM
About 83,000 compounds went through this panel and 20% of them were active in at least one assay; those are over-represented in the sample as a whole.
assayReadout: growth (%)
Return type: number; implicit unit %.

CC(C)(C)c1ccc(S(=O)(=O)N[C@H]2CC[C@H]3[C@@H]4CCc5cc(O)ccc5[C@H]4CC[C@]23C)cc1    55.4

Specify growth for Cc1ccc(C)c(COc2cc(NC(=O)c3ccc4c(c3)OCO4)ccc2N(C)S(C)(=O)=O)c1 and stop. 4.74

Supply reported growth belonging to this molecule: Cc1ccc(C(C)C)c(O)c1NC(=O)OC(C)C 77.5

* * *

# Test system: CAKI-1 renal
# protocolText: NCI-60 one-dose screen, 48 h
# recordedConditions: 10 µM
The panel holds about 83,000 compounds, 20% with a hit somewhere; the sample as a whole holds those more often. Calls of active or inactive are those of the source. Rule for the calls: active = growth percent below 10; inactive = the rest.
Assign a class; possible classes are Y (active), N (inactive)

COc1cc(/C=C2\CCCC3=C2N=C2SC(C)=CN2C3c2cc(OC)c(OC)c(OC)c2)cc(OC)c1OC (stereo unspecified)    N

For this molecule, state the assay outcome: COc1cc2c(cc1NC(=O)C(Cl)Cl)-c1ccc(NC(=O)C(Cl)Cl)cc1C2 Y

* * *

# Tested on: A549/ATCC NSCLC
# protocolText: NCI-60 one-dose screen, 48 h (100 = growth as untreated, 0 = no growth, -100 = all killed)
# recordedConditions: 10 µM
The panel holds about 83,000 compounds, 20% with a hit somewhere; the sample as a whole holds those more often.
Assign class by growth: not lower than 20% means t; lower than 20% means f.

Consider the following illustrative entries.
Cc1cn(-c2cc(F)cc(NC(=O)c3ccc(C)c(Nc4nccc(-c5cccnc5)n4)c3)c2)cn1    f
O=C(Nc1ccc(OS(=O)(=O)c2ccccc2)cc1)C1CCCCC1    t
CCCCCC(=O)O[C@]1(C(C)=O)CCC2C3CCC4=CC(=O)CC[C@]4(C)C3CC[C@@]21C (stereo not given in full)    t
CCC(CC)n1c(C)cc(=O)n1C(CC)CC    t

Next up:
Dear colleague, could you confirm whether CO[C@H]1CC(O[C@@H]2/C(C)=C/C[C@@H]3C[C@@H](C[C@]4(C=C[C@H](C)[C@@H](C5CCCCC5)O4)O3)OC(=O)[C@@H]3C=C(C)[C@@H](O)[C@H]4OC/C(=C\C=C\[C@@H]2C)[C@]43O)O[C@@H](C)C1O[C@H]1C[C@H](OC)[C@@H](O)[C@H](C)O1 (stereo not given in full) has growth at or above 20%? f

* * *

# Tested on: M14 melanoma
# protocolText: NCI-60 one-dose screen, 48 h (100 = growth as untreated, 0 = no growth, -100 = all killed)
# recordedConditions: 10 µM
This is part of a sample that, as a whole, favours compounds with a hit. Of some 83,000 tested, about 20% had one in any assay.
assayReadout: growth (%)
Use % as the unit, but write only the number.

CCN(CC)CCCOc1cccc2c1C(=O)c1cccc(OCCCN(CC)CC)c1C2=O    48.1
Nc1cc(-c2ccc(Cl)cc2)nn1-c1nc2ccccc2nc1Cc1ccccc1    89.6
COc1ccc(CCN2CCC(Nc3nc4ccccc4n3Cc3ccc(F)cc3)CC2)cc1    -99.4
COc1ccccc1N1CCCSC1=Nc1ccccc1    63.3
C[C@]12CCC3c4ccc(O)cc4C[C@@H](CCCCCCCCCS(=O)CCCC(F)(F)C(F)(F)F)C3C1CC[C@@H]2O (stereo partly drawn)    100

Tell me growth reported for COc1ccc(-c2nn(-c3cccc(Cl)c3)cc2/C=C2\NC(=S)N(c3ccc(Cl)cc3)C2=O)cc1 4.39

Specify measured growth for COc1cccc(C2C(C#N)=C(N)Oc3cc(N)ccc32)c1 (stereo not drawn) . 10.9

For C=C(NC(=O)C(=C)NC(=O)c1csc(C2=NC3c4csc(n4)C4NC(=O)c5csc(n5)C(C(C)(O)C(C)O)NC(=O)C5CSC(=N5)C(=CC)NC(=O)C(C(C)O)NC(=O)c5csc(n5)C3(CC2)NC(=O)C(C)NC(=O)C(=C)NC(=O)C(C)NC(=O)C(C(C)CC)NC2C=Cc3c(C(C)O)cc(nc3C2O)C(=O)OC4C)n1)C(N)=O (stereo not drawn) , write its growth. 2.27

Give the measured growth for COC(=O)CC[C@@H](C)[C@H]1CC[C@H]2[C@@H]3CC[C@@H]4C[C@H](O)CC[C@]4(C)[C@H]3C[C@H](O)[C@]12C 102

Give growth for the following compound: Cc1ccc(C2NC(=S)N3C(c4ccc(C)cc4)NC(=S)N23)cc1 (stereo not drawn) -26.5

# return recorded growth for input CNS(=O)(=O)Oc1ccc(-c2ccc3occc3c2)cc1 113

Please report the measured growth for Nc1nc(-c2ccc(Cl)cc2)cc(-c2cc3ccccc3oc2=O)n1 95.3

Please indicate growth recorded for C/C(=C/CCC(C)[C@@H]1CC[C@]2(C)C3=C(CC[C@@]12C)[C@@]1(C)CCC(=O)C(C)(C)[C@@H]1CC3)C(=O)O (stereo partly drawn) -76.8

Return the recorded growth value; entry: Clc1ccc(/C=C2\CCCC3C2=Nc2ccccc2NC3c2ccc(Cl)cc2)cc1 (stereo not drawn) 29.1

* * *

# key: entry, value: growth
# Test system: HT29 colon
# protocolText: NCI-60 one-dose screen, 48 h (100 = growth as untreated, 0 = no growth, -100 = all killed)
# recordedConditions: 10 µM
Compounds without any hit were thinned out: in the full panel of roughly 83,000, 20% have a hit.
Just the number please, in %, no unit attached.

Use the examples below as a reference point.
CC[C@@H](C(=O)[C@@H](C)[C@@H](O)[C@H](C)[C@@H]1O[C@@H]([C@@H](CC)C(=O)N(CC)CC)CC[C@@H]1C)C1O[C@]2(C=CC(=O)[C@]3(CC[C@@](C)([C@H]4CC[C@](O)(CC)[C@H](C)O4)O3)O2)[C@H](C)C[C@@H]1C (stereo partly drawn)    13.1
C=CCn1c(SCC(=O)Nc2ccc(C(=O)/C=C/c3ccc(OC)cc3)cc2)nnc1-c1ccc(OC)c(OC)c1    89.8
COc1cc(Cc2cc(-c3ccccc3)n[nH]c2=O)cc(OC)c1OC    18.3
COc1ccc(-c2n[nH]nc2-c2cc(OC)c3c(c2OC)OCO3)cc1    4.41

Complete the entry with growth for OCCn1cccn1 104

For the molecule CCCc1nc(C(C)(C)O)c(C(=O)O)n1Cc1ccc(-c2ccccc2-c2nn[nH]n2)cc1 , give its reported growth. 93.6

Identify measured growth corresponding to COc1cc2cc(Oc3ccc(NC(=O)c4ccc(Cl)c(C(F)(F)F)c4)cc3)c(C)nc2cc1OC 26

Look up growth of CC(=O)OC/C=C(/C)C[P+](c1ccccc1)(c1ccccc1)c1ccccc1 and report it. 59.8
